experiment: Test for Rate of Hydrolysis by Endogenous Enzyme in whole blood; format: in vitro ADME, rat (male Wistar); details: rat whole blood, 37° C., 1 μg in 0.5 ml; read-out: Decomposition rate, 30 minutes after
MEASURE: metabolised at 0.5 h (%)

C[C@H](Cc1cc(C(N)=O)c2c(ccn2CCCOC(=O)C(C)(C)c2ccccc2)c1)NCCOc1ccccc1OCC(F)(F)F 1.6
CCC(C)(C)C(=O)OCCCn1ccc2cc(C[C@@H](C)NCCOc3ccccc3OCC(F)(F)F)cc(C(N)=O)c21 5.6
CCC(CC)C(=O)OCCCn1ccc2cc(C[C@@H](C)NCCOc3ccccc3OCC(F)(F)F)cc(C(N)=O)c21 12
C[C@H](Cc1cc(C(N)=O)c2c(ccn2CCCOC(=O)C(C)(C)C)c1)NCCOc1ccccc1OCC(F)(F)F 67.1
CCCC(C)(C)C(=O)OCCCn1ccc2cc(C[C@@H](C)NCCOc3ccccc3OCC(F)(F)F)cc(C(N)=O)c21 3.8

* * *

biological target: α1-adrenoceptor (Rattus norvegicus, UniProt P43140); construct: Ductus deferenses (about 1.5 cm from testis side) were isolated; assay: Test for Measuring α1-adrenoceptor Blocking Effect (inhibition of norepinephrine contraction of isolated ductus deferens); settings: 10 μM norepinephrine, propranorol 1 μM and yohimbine 0.1 μM
Sequence (P43140 whole entry): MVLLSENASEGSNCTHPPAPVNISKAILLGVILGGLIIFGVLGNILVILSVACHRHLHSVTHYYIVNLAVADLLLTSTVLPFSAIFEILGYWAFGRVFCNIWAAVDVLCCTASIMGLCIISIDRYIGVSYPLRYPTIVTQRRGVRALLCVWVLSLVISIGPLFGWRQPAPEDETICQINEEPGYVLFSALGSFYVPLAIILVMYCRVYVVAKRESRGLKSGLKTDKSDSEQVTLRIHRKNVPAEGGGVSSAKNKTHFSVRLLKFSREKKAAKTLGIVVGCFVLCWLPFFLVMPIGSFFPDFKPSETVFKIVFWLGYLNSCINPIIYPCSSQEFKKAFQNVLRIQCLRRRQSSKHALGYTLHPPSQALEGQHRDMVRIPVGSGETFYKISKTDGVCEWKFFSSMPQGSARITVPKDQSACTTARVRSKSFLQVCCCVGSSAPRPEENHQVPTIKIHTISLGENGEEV
pIC50: −log10 of the molar value. Where a name gives a salt, the structure may show the parent alone.

MOLECULE	ASSAYED TARGET	pIC50
CCCC(=O)N1CCCN(c2nc(N)c3cc(OC)c(OC)cc3n2)CC1 [Bunazosin hydrochloride]	α1-adrenoceptor (Rattus norvegicus, UniProt P43140)	6.50

* * *

experiment: Test for Rate of Hydrolysis by Endogenous Enzyme in whole blood; format: in vitro ADME, rat (male Wistar); settings: blood, 30 minutes
MEASURE: metabolised at 0.5 h

C[C@H](Cc1cc(C(N)=O)c2c(ccn2CCCOC(=O)C(C)(C)C)c1)NCCOc1ccccc1OCC(F)(F)F ~67%
CCC(C)(C)C(=O)OCCCn1ccc2cc(C[C@@H](C)NCCOc3ccccc3OCC(F)(F)F)cc(C(N)=O)c21 ~6%
C[C@H](Cc1cc(C(N)=O)c2c(ccn2CCCOC(=O)C(C)(C)c2ccccc2)c1)NCCOc1ccccc1OCC(F)(F)F ~2%
CCC(CC)C(=O)OCCCn1ccc2cc(C[C@@H](C)NCCOc3ccccc3OCC(F)(F)F)cc(C(N)=O)c21 ~12%
CCCC(C)(C)C(=O)OCCCn1ccc2cc(C[C@@H](C)NCCOc3ccccc3OCC(F)(F)F)cc(C(N)=O)c21 ~4%

* * *

assay: Test for Rate of Hydrolysis by Endogenous Enzyme in whole blood; format: in vitro ADME, rat (male Wistar); conditions: rat whole blood, 37° C., 1 μg in 0.5 ml; read-out: Decomposition rate, 15 minutes after
Cut-off 2% on metabolised at 0.25 h, inclusive. At or above means 1; below means 0.

C[C@H](Cc1cc(C(N)=O)c2c(ccn2CCCOC(=O)C(C)(C)C)c1)NCCOc1ccccc1OCC(F)(F)F 1
CCC(CC)C(=O)OCCCn1ccc2cc(C[C@@H](C)NCCOc3ccccc3OCC(F)(F)F)cc(C(N)=O)c21 1
CCCC(C)(C)C(=O)OCCCn1ccc2cc(C[C@@H](C)NCCOc3ccccc3OCC(F)(F)F)cc(C(N)=O)c21 1
C[C@H](Cc1cc(C(N)=O)c2c(ccn2CCCOC(=O)C(C)(C)c2ccccc2)c1)NCCOc1ccccc1OCC(F)(F)F 0
CCC(C)(C)C(=O)OCCCn1ccc2cc(C[C@@H](C)NCCOc3ccccc3OCC(F)(F)F)cc(C(N)=O)c21 1

* * *

assay: Stability Test in aqueous solution; type: physicochemical; details: pH 5, decomposed into Compound A, 70° C., about 1 month at 70° C.
MEASURE: degraded

MOLECULE	EXPERIMENTAL RESULT
C[C@H](Cc1cc(C(N)=O)c2c(ccn2CCCOC(=O)C(C)(C)C)c1)NCCOc1ccccc1OCC(F)(F)F [Compound D]	~1.1%

* * *

test: Test for Measuring Drug Concentration in Aqueous Humor (2), after instillation of Compound C hydrochloride; type: in vivo, rabbit (Japanese White); conditions: aqueous humor, topical or ocular, 50 ug/eye; rabbit eye, 50 μl of 0.1% Compound C hydrochloride instilled; Compounds B and C determined; read-out: Drug concentrations in aqueous humor, 6 hours after
MEASURE: concentration at 6 h

CCOc1ccccc1OCCN[C@H](C)Cc1cc(C(N)=O)c2c(ccn2CCCOC(=O)C(C)(C)C)c1 < 1 ng/mL

* * *

assay: Test for Rate of Hydrolysis by Endogenous Enzyme in whole blood; format: in vitro ADME, rat (male Wistar); conditions: rat whole blood, 37° C., 1 μg in 0.5 ml; read-out: Decomposition rate, 2 hours after
Below: a set of entries, each annotated with reported metabolised at 2 h.

COMPOUND	metabolised at 2 h (%)
C[C@H](Cc1cc(C(N)=O)c2c(ccn2CCCOC(=O)C(C)(C)c2ccccc2)c1)NCCOc1ccccc1OCC(F)(F)F [Compound c]	3.7
CCC(C)(C)C(=O)OCCCn1ccc2cc(C[C@@H](C)NCCOc3ccccc3OCC(F)(F)F)cc(C(N)=O)c21 [Compound d]	21.7
C[C@H](Cc1cc(C(N)=O)c2c(ccn2CCCOC(=O)C(C)(C)C)c1)NCCOc1ccccc1OCC(F)(F)F [Compound D]	98.6
CCCC(C)(C)C(=O)OCCCn1ccc2cc(C[C@@H](C)NCCOc3ccccc3OCC(F)(F)F)cc(C(N)=O)c21 [Compound b]	10.2
CCC(CC)C(=O)OCCCn1ccc2cc(C[C@@H](C)NCCOc3ccccc3OCC(F)(F)F)cc(C(N)=O)c21 [Compound a]	25.2

* * *

experiment: Test for Measuring Drug Concentration in Aqueous Humor (2), after instillation of Compound C hydrochloride; type: in vivo, rabbit (Japanese White); settings: aqueous humor, topical or ocular, 50 ug/eye; rabbit eye, 50 μl of 0.1% Compound C hydrochloride instilled; Compounds B and C determined; read-out: Drug concentrations in aqueous humor, 2 hours after
MEASURE: concentration at 2 h

COMPOUND	MEASURE	EXPERIMENTAL RESULT
CCOc1ccccc1OCCN[C@H](C)Cc1cc(C(N)=O)c2c(ccn2CCCOC(=O)C(C)(C)C)c1 [Compound C]	concentration at 2 h	< 1 ng/mL

* * *

test: Test for Rate of Hydrolysis by Endogenous Enzyme in whole blood; type: in vitro ADME, rat (male Wistar); details: rat whole blood, 37° C., 1 μg in 0.5 ml; read-out: Decomposition rate, 1 hour after

COMPOUND	ENDPOINT UNIT	metabolised at 1 h
CCC(C)(C)C(=O)OCCCn1ccc2cc(C[C@@H](C)NCCOc3ccccc3OCC(F)(F)F)cc(C(N)=O)c21 [Compound d]	%	8.4
CCC(CC)C(=O)OCCCn1ccc2cc(C[C@@H](C)NCCOc3ccccc3OCC(F)(F)F)cc(C(N)=O)c21 [Compound a]	%	12.6
CCCC(C)(C)C(=O)OCCCn1ccc2cc(C[C@@H](C)NCCOc3ccccc3OCC(F)(F)F)cc(C(N)=O)c21 [Compound b]	%	7.5
C[C@H](Cc1cc(C(N)=O)c2c(ccn2CCCOC(=O)C(C)(C)C)c1)NCCOc1ccccc1OCC(F)(F)F [Compound D]	%	86.5
C[C@H](Cc1cc(C(N)=O)c2c(ccn2CCCOC(=O)C(C)(C)c2ccccc2)c1)NCCOc1ccccc1OCC(F)(F)F [Compound c]	%	3.2

Origin of the recorded values: patent US6310086A
